Listed below: Tm values for each entry.
- assay overview: melting temperature; fluorescence melt of hairpins on a sequencing array, two-state fit, raised by 9.35 °C to match UV melts
- settings: sodium 0.088 M
Use °C as the unit, but write only the number.

These solved cases illustrate the format of a correct answer.
Exercise: Could you share which Tm value was measured for GATCTAATCTAGATC ((((((...)))))) ?
Key: 38.8

Exercise: // Tm lookup, key: GGCGTGACGAAAGTCGCC (((..(((....))))))
Key: 57.5

Exercise: I'd like to know its Tm. The sequence in question is GTTCTTGGAAACAAGGAC ((.((((....)))).))
Key: 44.6

Exercise: Recorded Tm for GCGGTCGAAAGACTTCGC ((((((....)))..))) , please?
Key: 47.6

Exercise: Which Tm value belongs to GACACGGGAAACTGTGTC (((((.(....).))))) ?
Key: 53.5

Exercise: For the sequence CGCTTGAAAAAGCG (((((....))))) , what Tm is on record?
Key: 58.2

Exercise: Need Tm, item GGGACACGAAAGTGCCC (((.(((....))))))
Key: 60.9

Exercise: So what does the record say about Tm for AGTGAGAAATCACT (((((....))))) ?
Key: 38.5

Exercise: Look up Tm for this sequence: GGGTGGAAACACCC (((((....)))))
Key: 63.5

Exercise: What value of Tm has been reported for the following sequence? GCAAATGCGAAAGCATGC (((..(((....))))))
Key: 51.4

Next:
Exercise: Given GCAGAGTCGAAAGACTGC (((..(((....)))))) , state its recorded Tm.
Key: 48.7

Exercise: Entry GCCGACGAAAGTCCGGC ((((((....))).))) has what Tm?
Key: 61.2

====

- assay overview: folding enthalpy; higher = less favourable; fluorescence melt of hairpins on a sequencing array, two-state fit
- settings: sodium 0.088 M
Parameter folding enthalpy: see the listing below.
Kindly answer with a numeric value in kcal/mol, unit omitted.

Below, 10 sequences whose answers are already recorded.
Exercise: Could you tell me which folding enthalpy is on file for GATCAGACCCTGATC ((((((...)))))) ?
Key: -33.4

Exercise: Fill in the blank: the reported folding enthalpy of GTGTCTGGAAACAGGTAC ((..(((....)))..)) is ____.
Key: -11.4

Exercise: Reported folding enthalpy, sequence GCGTACTGACGC ((((....)))) : ____
Key: -21.9

Exercise: Fill in the blank: the reported folding enthalpy of GTTGACCGAAAGGTAAC (((.(((....)))))) is ____.
Key: -16.4

Exercise: Returns the measured folding enthalpy for the input sequence. Input: GCACCATCGAAAGATTGC (((..(((....))))))
Key: -20

Exercise: Recorded folding enthalpy of GTCACCACGAAAGTGGAC (((..(((....)))))) , please.
Key: -7.89

Exercise: Given the sequence CACTGGAAACAGTG (((((....))))) , what is its reported folding enthalpy?
Key: -26.7

Exercise: Give its folding enthalpy value. Item: GGGCCTCGAAAGAGTCCC (((.(((....))).)))
Key: -40.7

Exercise: Entry under review: GATCTTAGTCAAGATC ((((((....)))))) . Reported folding enthalpy?
Key: -31.4

Exercise: Tell me the measured folding enthalpy of GCACGCACGAAAGTGTGC (((..(((....)))))) , please.
Key: -23.2

Next:
Exercise: # lookup: folding enthalpy of GCGCGTCCGAAAGGACGC (((..(((....))))))
Key: -5.6

Exercise: May I ask what folding enthalpy has been recorded for GGCCCAGGAAACCGGGCC (((((.(....).))))) ?
Key: -42.2
